Values from patent US5561042A

- Tested on: P388 murine leukemic cell line
- Experiment notes: In vitro growth inhibition (MTT), P388 leukemia
- Type: cell-based
- Particulars: Mus musculus, P388, 72 h, 3 days
Parameter: pIC50
Keep it numeric: pIC50 is minus log10 of the concentration in mol/L.

Some molecules with recorded pIC50:
>>> recorded_measurement("O=C1c2cccc3cc([N+](=O)[O-])cc(c23)C(=O)N1CCNCCSCCN1C(=O)c2cccc3cc([N+](=O)[O-])cc(c23)C1=O [Compound 10]")
7.25
>>> recorded_measurement("C[C@H](CNCCNC[C@@H](C)N1C(=O)c2cccc3cc([N+](=O)[O-])cc(c23)C1=O)N1C(=O)c2cccc3cc([N+](=O)[O-])cc(c23)C1=O [DMP840]")
8.22

// sample O=C1c2cccc3cc([N+](=O)[O-])cc(c23)C(=O)N1CCNCCS(=O)(=O)CCN1C(=O)c2cccc3cc([N+](=O)[O-])cc(c23)C1=O [Compound 14] , its pIC50 was 7.57

Lab book: pIC50 of O=C1c2cccc3cc([N+](=O)[O-])cc(c23)C(=O)N1CCNCC[S+]([O-])CCN1C(=O)c2cccc3cc([N+](=O)[O-])cc(c23)C1=O (stereo not shown) [Compound 12] noted as 8.05
